Data provenance: patent US12325696B2

Tested on: MCF7 ERαY537S
Experiment: Inhibition of proliferation of MCF7 cell expressing ERα Y537S mutant
Assay type: cell-based
Settings: Homo sapiens, 144 hours
Parameter IC50: see the listing below.
Recorded Endpoint: IC50 (nM)

1) CN(C)C(=O)/C=C/CNC1(COc2ccc(/C(=C(/CC(F)(F)F)c3ccccc3)c3ccc4[nH]nc(F)c4c3)cn2)CCCCC1
2
2) CN(C)C(=O)/C=C/CN1CCC[C@@H](Oc2ccc(/C(=C(/CC(F)(F)F)c3ccc(S(C)(=O)=O)cc3)c3ccc4[nH]nc(F)c4c3)cn2)C1
5
3) O=C(/C=C/CN[C@H]1CCCN(c2ccc(/C(=C(/CC(F)(F)F)c3ccccc3)c3ccc4[nH]nc(F)c4c3)cn2)C1)N1CCOCC1
4
